Biological target: RNA-editing ligase 1, mitochondrial (Trypanosoma brucei brucei)
Assay: T. brucei editing ligase REL1 blockade – biochemical, FRET fluorescence, primary screen (AID 1117264);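 further: 0% = plate median of test wells and 100% = NSC42067 control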
Details: TbREL1 RNA ligation, at 9.66 µM, active compounds read high
Screen size: about 89,000 compounds; about 440 (0.49%) were called active. For the sample, actives were picked, then their nearest neighbours and some compounds at random.
READOUT_TYPE: inhibition

## Task Please look up its inhibition: CSc1ccc(C(=O)C2CCCN(Cc3ccn[nH]3)C2)cc1 (stereo not given)
## Result 0.96% (inactive)

----------
Molecular target: RNA-editing ligase 1, mitochondrial (Trypanosoma brucei brucei) (UniProt P86926)
Sequence (P86926 whole entry, looked up): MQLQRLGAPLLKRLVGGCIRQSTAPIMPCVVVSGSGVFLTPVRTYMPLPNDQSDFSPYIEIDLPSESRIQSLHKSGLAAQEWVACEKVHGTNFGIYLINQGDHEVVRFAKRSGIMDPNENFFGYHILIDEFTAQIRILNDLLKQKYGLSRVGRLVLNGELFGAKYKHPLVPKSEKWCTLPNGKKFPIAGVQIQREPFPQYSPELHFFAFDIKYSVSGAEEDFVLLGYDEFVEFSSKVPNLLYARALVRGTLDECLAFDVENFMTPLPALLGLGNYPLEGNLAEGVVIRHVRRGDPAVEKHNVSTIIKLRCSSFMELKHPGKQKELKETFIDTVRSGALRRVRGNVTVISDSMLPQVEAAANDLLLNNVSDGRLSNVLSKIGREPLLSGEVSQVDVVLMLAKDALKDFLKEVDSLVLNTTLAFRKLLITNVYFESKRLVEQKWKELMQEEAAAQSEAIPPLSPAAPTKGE
Assay: T. brucei editing ligase REL1 blockade – biochemical, FRET fluorescence, primary screen (AID 1117264);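 further: 0% = plate median of test wells and 100% = NSC42067 control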
Settings: TbREL1 RNA ligation, at 9.66 µM
Hit rate of the full screen: of about 89,000 compounds, about 440 (0.49%) were called active.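 The calls were made as follows: active = inhibition above the mean inhibition across all screened compounds plus 3 SD (cut at about 11% in these data); inactive = the rest.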 This excerpt belongs to a sample that is enriched for actives.
Thanks in advance; please answer with one of these: active, inactive

Example entries begin here.
CCOC(=O)CNC(=O)N1Cc2cc(N3CCCCC3)ccc2-n2nncc2C1 ... inactive
CCOP(=O)(OCC)C(NC(=O)NC)C(N)=O (centres undefined) ... inactive
CN1CCN(c2cc(N3CCNCC3)ccc2[N+](=O)[O-])CC1 ... active
O=c1[nH]c2ccccc2n1C1CCN(C(c2ccccc2)c2nnnn2Cc2ccccc2)CC1 (centres undefined) ... active
CCC(=NCCc1ccccc1)c1c(O)n(C2CCCCC2)c(=O)[nH]c1=O ... inactive
COc1ccc(-n2nnnc2C(c2cccc3ccccc23)N2CCC(n3c(=O)[nH]c4ccccc43)CC2)cc1 (centres undefined) ... inactive
CN1CCN(C(=S)SCC(=O)Nc2ccc(Cl)cc2C(=O)c2ccccc2)CC1 ... inactive
COc1cccc(-c2nc3ccc(N4CCN(C)CC4)cc3[nH]2)c1 ... inactive

## Task Status in this test for CC1CCCCN1Cc1cccnc1 (centres undefined) ?
## Result active
